# target.entity: CD33 (Sino Biological, Cat #12238-H08H) (UniProt P20138 18-259)
# Sequence (P20138 18-259 limits assumed): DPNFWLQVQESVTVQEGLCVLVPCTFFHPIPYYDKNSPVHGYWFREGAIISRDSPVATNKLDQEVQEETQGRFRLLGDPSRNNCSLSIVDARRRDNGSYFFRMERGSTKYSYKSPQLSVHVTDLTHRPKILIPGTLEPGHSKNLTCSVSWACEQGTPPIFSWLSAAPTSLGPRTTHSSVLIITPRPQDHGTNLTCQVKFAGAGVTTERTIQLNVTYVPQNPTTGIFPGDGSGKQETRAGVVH
# assay.method.text: BLI, IgG captured on anti-human Fc sensor, 50 nM CD33, pH 7.4 vs pH 5.4
reported.endpoint: binding result

binder="MYT2675 (antibody, V domains shown, IgG; vadastuximab VL variant #23 (E93H)) VH: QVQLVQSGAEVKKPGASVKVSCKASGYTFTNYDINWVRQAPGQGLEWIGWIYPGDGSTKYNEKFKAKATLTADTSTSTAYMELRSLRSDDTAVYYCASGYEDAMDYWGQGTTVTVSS VL: DIQMTQSPSSLSASVGDRVTINCKASQDINSYLSWFQQKPGKAPKTLIYRANRLVDGVPSRFSGSGSGQDYTLTISSLQPEDFATYYCLQYDHFPLTFGGGTKVEIK" recorded_measurement=binds
binder="MYT1239 (antibody, V domains shown, IgG; IMGN779 VH variant #27 (G66H)) VH: QVQLQQPGAEVVKPGASVKMSCKASGYTFTSYYIHWIKQTPGQGLEWVGVIYPGNDDISYNQKFQHKATLTADKSSTTAYMQLSSLTSEDSAVYYCAREVRLRYFDVWGQGTTVTVSS VL: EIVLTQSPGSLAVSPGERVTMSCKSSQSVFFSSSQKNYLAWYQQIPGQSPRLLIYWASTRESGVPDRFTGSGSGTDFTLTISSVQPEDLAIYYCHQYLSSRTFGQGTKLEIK" recorded_measurement=binds
